These measurements were taken from patent US11066369B2.

Biological target: horseradish peroxidase (HRP) tagged delF508-CFTR (Homo sapiens, UniProt P13569, DEL508-508)
Construct: expressed in transfected cells
Test: Measurement of delF508-CFTR-HRP surface expression in CFBE41o- cells
Type: cell-based
Details: delF508-CFTR-HRP surface expression, CFBE41o- cells; read-out: DelF508-CFTR-HRP Amax %
Method: Measurement of delF508-CFTR-HRP Surface Expression in CFBE41o-Cells This assay quantifies the cell surface expressions of the mutant CFTR channel using an extracellular HRP tag. […] The median activity for the lowest concentration of the compounds on each assay plate was calculated and this value was used to normalize the signal for each well on the respective plate. […] The median value was determined and used to calculate compound activities as described below. […]
Structures can show the parent of a compound that is named as a salt.
quantity: Emax (%)

{"molecule": "Cc1ccc(F)cc1-c1nc(NS(=O)(=O)c2cccc(N3CC(O)(CO)C3)n2)ccc1Cl [Example 235]", "Emax (%)": 203}
{"molecule": "CCOC(=O)C1(C)CCN(c2cccc(S(=O)(=O)Nc3ccc(C(F)(F)F)c(-c4cc(F)ccc4C)n3)n2)CC1 [Example 251]", "Emax (%)": 894}
{"molecule": "Cc1cccc(C)c1-c1cc(C(F)(F)F)cc(NS(=O)(=O)c2cccc(N3CCNCC3)n2)n1 [Example 133, Hydrochloride]", "Emax (%)": 570}

A = Cc1ccc(C#N)cc1-c1nc(NS(=O)(=O)c2cccc(N3CCNCC3)n2)ccc1Cl [Example 312]
B = Cc1ccc(F)cc1-c1nc(NS(=O)(=O)c2cccc(N3CCC[C@H](C(=O)O)C3)n2)ccc1C(F)(F)F [Example 359]
C = Cc1ccc(C#N)cc1-c1nc(NS(=O)(=O)c2cccc(N)n2)ccc1Cl [Example 84]
Ordering: ascending Emax. Submit the labels in the order that the ranking request calls for.
C, A, B
(C: 111%, A: 167%, B: 648%)

====

target: horseradish peroxidase (HRP) tagged delF508-CFTR (Homo sapiens, UniProt P13569, DEL508-508); construct: expressed in transfected cells; test: Measurement of delF508-CFTR-HRP surface expression in CFBE41o- cells; assay type: cell-based; details: CFBE41o- cells; surface expression Amax; read-out: DelF508-CFTR-HRP Amax %;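 as to DelF508-CFTR-HRP Amax %: percent efficacy relative to reference corrector lumacaftor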
quantity: Emax (%)

Worked set:
{"compound": "O=C(O)[C@]12CC[C@H](O1)[C@H](Nc1cccc(S(=O)(=O)Nc3ccc(C(F)(F)F)c(-c4ccccc4C4CC4)n3)n1)C2 (racemic)", "recorded value": 53.4}
{"compound": "Cc1ccccc1-c1nc(NS(=O)(=O)c2cccc(N[C@@H]3CCC[C@@H](C(=O)O)C3)n2)ccc1C(F)(F)F (relative stereo)", "recorded value": 410}
{"compound": "Cc1c(F)cccc1-c1nc(NS(=O)(=O)c2cccc(N3CCCC4(CC4C(=O)O)C3)n2)ccc1C(F)(F)F (centres unmarked)", "recorded value": 274}
{"compound": "CC(C)c1ccccc1-c1nc(NS(=O)(=O)c2cccc(N3CCCC(C)(C(=O)O)C3)n2)ccc1Cl (centres unmarked)", "recorded value": 928}
{"compound": "C[C@@]1(C(=O)O)CCCN(c2cccc(S(=O)(=O)Nc3cccc(-c4ccccc4C4CC4)n3)n2)C1", "recorded value": 235}
{"compound": "Cc1ccccc1-c1nc(NS(=O)(=O)c2cccc(NC3CCCC(C(=O)O)C3)n2)ccc1C(F)(F)F (mixture of isomers)", "recorded value": 362}
{"compound": "CC1(C(=O)O)CCN(c2cc(S(=O)(=O)Nc3ccc(C(F)(F)F)c(-c4ccccc4C4CCC4)n3)ccn2)CC1", "recorded value": 272}
{"compound": "CC1(C(=O)O)CCCN(c2cccc(S(=O)(=O)Nc3ccc(Cl)c(-c4ccccc4C4CC4)n3)n2)C1 (centres unmarked)", "recorded value": 763}

a = C[C@@]1(C(=O)O)CCCN(c2cccc(S(=O)(=O)Nc3ccc(C(F)(F)F)c(-c4ccccc4C4CC4)n3)n2)C1
b = Cc1ccccc1-c1cccc(NS(=O)(=O)c2cccc(N3CCC[C@@](C)(C(=O)O)C3)n2)n1
Just curious, which one has the larger Emax reading, a or b ? Mark your answer with the label of the selected entry.
a

====

biological target: horseradish peroxidase (HRP) tagged delF508-CFTR (Homo sapiens, UniProt P13569, DEL508-508); construct: expressed in transfected cells; experiment: Measurement of delF508-CFTR-HRP surface expression in CFBE41o- cells; assay type: cell-based; settings: delF508-CFTR-HRP surface expression, CFBE41o- cells; read-out: DelF508-CFTR-HRP EC50
pEC50: −log10 of the molar value. Counter-ions that a name gives are not always drawn.
quantity: pEC50

Worked set:
{"compound": "Cc1ccc(C(F)(F)F)cc1-c1nc(NS(=O)(=O)c2cccc(N3CC(C)(O)C3)n2)ccc1Cl", "pEC50": 5.74}
{"compound": "Cc1ccccc1-c1nc(NS(=O)(=O)c2cccc(O[C@@H]3COCC3(C)O)n2)ccc1C(F)(F)F (mixture of isomers)", "pEC50": 5.71}
{"compound": "CC1(O)CN(c2cccc(S(=O)(=O)Nc3ccc(C(F)(F)F)c(-c4ccccc4Cl)n3)n2)C1", "pEC50": 5.88}
{"compound": "Cc1ccccc1-c1nc(NS(=O)(=O)c2ccc(C)c(N)n2)ccc1C(F)(F)F", "pEC50": 5.68}
{"compound": "Cc1ccccc1-c1nc(NS(=O)(=O)c2cccc(N3CCO[C@@H](C(=O)O)C3)n2)ccc1C(F)(F)F", "pEC50": 5.64}

I = Cc1cccc(C)c1-c1nc(NS(=O)(=O)c2ccc(N)nc2)ccc1Cl
II = Cc1ccccc1-c1nc(NS(=O)(=O)c2cccc(N[C@H]3CCNC3)n2)ccc1C(F)(F)F [Example 124, Hydrochloride]
III = Cc1ccccc1-c1nc(NS(=O)(=O)c2cccc(N3CCC(C)(C(=O)O)CC3)n2)ccc1C(F)(F)F
Ordering: ascending pEC50. Submit the labels in the order that the ranking request calls for.
II, III, I
(II: 5.34, III: 5.58, I: 5.86)

P = Nc1cccc(S(=O)(=O)Nc2ccc(Cl)c(-c3cc(C(F)(F)F)ccc3Cl)n2)n1
Q = Cc1cccc(C)c1-c1nc(NS(=O)(=O)c2cccc(N3CCN(C(=O)OC(C)(C)C)CC3)n2)ccc1Cl
Please indicate which item has the smaller measured pEC50: P versus Q Mark your answer with the label of the selected entry.
P
(P: 5.67, Q: 6.18)

1 = CC(C)c1ccccc1-c1nc(NS(=O)(=O)c2cccc(N)n2)ccc1F
2 = Cc1ccc(F)cc1-c1nc(NS(=O)(=O)c2cccc(N3C[C@@H](C)N[C@@H](C)C3)n2)ccc1C(F)(F)F [Example 178, Hydrochloride]
Please indicate which item has the smaller measured pEC50: 1 versus 2 Mark your answer with the label of the selected entry.
1

====

biological target: delF508-CFTR (Homo sapiens, UniProt P13569, DEL508-508); construct: functional activity of the CFTR channel (Chloride ion transport) in patient derived primary human bronchial epithelial cells; host or cells: patient-derived primary human bronchial epithelial cells (delF508-CFTR); experiment: Measurement of delF508-CFTR functional activity in primary human bronchial epithelial cells (HBECs) using Multi-Transepithelial Clamp Circuit (MTECC-24) assay; type: cell-based; conditions: primary CF HBECs; test compound added 24h before assay plus potentiator; relative to reference combination (2 μM corrector + 0.5 μM potentiator)
Sequence (P13569 with tags, fused parts or gaps DEL508-508): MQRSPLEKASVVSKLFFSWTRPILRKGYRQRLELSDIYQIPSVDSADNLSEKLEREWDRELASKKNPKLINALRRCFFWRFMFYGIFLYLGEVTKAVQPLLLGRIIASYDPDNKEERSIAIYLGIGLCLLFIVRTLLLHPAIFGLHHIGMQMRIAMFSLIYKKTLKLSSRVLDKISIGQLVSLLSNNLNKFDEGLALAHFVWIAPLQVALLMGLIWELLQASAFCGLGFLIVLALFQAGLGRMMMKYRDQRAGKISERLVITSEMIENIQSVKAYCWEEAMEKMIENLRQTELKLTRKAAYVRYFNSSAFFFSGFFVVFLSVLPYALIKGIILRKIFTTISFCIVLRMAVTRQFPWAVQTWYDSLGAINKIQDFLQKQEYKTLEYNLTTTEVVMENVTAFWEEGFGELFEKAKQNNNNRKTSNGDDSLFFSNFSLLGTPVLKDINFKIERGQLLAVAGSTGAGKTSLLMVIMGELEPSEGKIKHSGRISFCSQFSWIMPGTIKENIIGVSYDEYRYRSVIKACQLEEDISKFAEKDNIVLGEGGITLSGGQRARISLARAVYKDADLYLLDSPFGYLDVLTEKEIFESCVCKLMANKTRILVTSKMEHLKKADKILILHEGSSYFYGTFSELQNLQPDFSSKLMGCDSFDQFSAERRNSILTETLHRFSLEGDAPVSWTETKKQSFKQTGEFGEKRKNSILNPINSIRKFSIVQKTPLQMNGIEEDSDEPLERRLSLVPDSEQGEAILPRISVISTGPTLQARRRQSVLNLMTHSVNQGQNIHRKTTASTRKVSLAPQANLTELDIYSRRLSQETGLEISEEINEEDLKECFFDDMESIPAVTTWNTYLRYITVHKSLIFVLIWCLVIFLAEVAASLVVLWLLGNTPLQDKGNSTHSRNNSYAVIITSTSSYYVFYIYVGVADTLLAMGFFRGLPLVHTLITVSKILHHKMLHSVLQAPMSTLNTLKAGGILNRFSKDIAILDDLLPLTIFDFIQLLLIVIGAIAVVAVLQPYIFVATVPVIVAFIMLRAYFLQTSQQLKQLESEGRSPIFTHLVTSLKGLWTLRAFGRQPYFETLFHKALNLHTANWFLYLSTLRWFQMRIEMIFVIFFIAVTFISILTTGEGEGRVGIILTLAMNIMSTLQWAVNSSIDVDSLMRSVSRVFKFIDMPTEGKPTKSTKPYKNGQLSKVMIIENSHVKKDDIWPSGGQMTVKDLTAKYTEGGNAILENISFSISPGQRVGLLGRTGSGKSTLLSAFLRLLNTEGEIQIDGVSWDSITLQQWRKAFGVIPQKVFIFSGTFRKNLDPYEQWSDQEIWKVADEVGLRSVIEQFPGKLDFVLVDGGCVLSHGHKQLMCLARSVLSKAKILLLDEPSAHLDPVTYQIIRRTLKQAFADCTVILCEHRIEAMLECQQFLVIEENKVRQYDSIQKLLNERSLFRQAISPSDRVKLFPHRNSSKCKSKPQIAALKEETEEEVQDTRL
Structures can show the parent of a compound that is named as a salt.
quantity: MTECC24 CFHBEC- Amax % (%)

{"compound": "Cc1ccc(F)cc1-c1nc(NS(=O)(=O)c2ccc(N)nc2)ccc1Cl [Example 44]", "MTECC24 CFHBEC- Amax %, %": 61.6}
{"compound": "Cc1c(F)cccc1-c1nc(NS(=O)(=O)c2cccc(N3CCC(C)(C(=O)O)CC3)n2)ccc1C(F)(F)F [Example 263]", "MTECC24 CFHBEC- Amax %, %": 54.4}
{"compound": "Cc1ccc(C#N)cc1-c1nc(NS(=O)(=O)c2cccc(N3CC(C)(O)C3)n2)ccc1C(F)(F)F [Example 299]", "MTECC24 CFHBEC- Amax %, %": 61.7}
{"compound": "Cc1c(F)cccc1-c1nc(NS(=O)(=O)c2cccc(N3CCNCC3)n2)ccc1C(F)(F)F [Example 151, Hydrochloride]", "MTECC24 CFHBEC- Amax %, %": 75.3}
{"compound": "COc1ccc(Cl)c(-c2nc(NS(=O)(=O)c3cccc(N4CC(O)C4)n3)ccc2Cl)c1 [Example 228]", "MTECC24 CFHBEC- Amax %, %": 87.0}
{"compound": "Cc1ccccc1-c1nc(NS(=O)(=O)c2cccc(N3CCN(C)CC3)n2)ccc1C(F)(F)F [Example 189]", "MTECC24 CFHBEC- Amax %, %": 79.0}
{"compound": "Cc1cccc(C)c1-c1nc(NS(=O)(=O)c2cccc(N3CC(C)(O)C3)n2)ccc1Cl [Example 210]", "MTECC24 CFHBEC- Amax %, %": 68.7}
{"compound": "CO[C@@H]1CNCC[C@H]1Nc1cccc(S(=O)(=O)Nc2ccc(C(F)(F)F)c(-c3ccccc3C)n2)n1 (racemic) [Example 116, Hydrochloride]", "MTECC24 CFHBEC- Amax %, %": 60.8}
{"compound": "Cc1ccccc1-c1nc(NS(=O)(=O)c2cccc(N3CCNCC3)n2)ccc1Cl [Example 195, hydrochloride]", "MTECC24 CFHBEC- Amax %, %": 80.0}
{"compound": "Cc1ccccc1-c1nc(NS(=O)(=O)c2cccc(N3CCN[C@H](C)C3)n2)ccc1C(F)(F)F [Example 167, Hydrochloride]", "MTECC24 CFHBEC- Amax %, %": 67.6}
